assay: Antagonist activity at human GluN1-1a/[…] receptor expressed in Xenopus laevis oocytes assessed as inhibition of glutamate/glycine-induced current at pH 6.9 with -40 mV holding potential by two-electrode voltage-clamp method; assay type: cell-based; conditions: Oocyte
property-label: IC50 (nM)

NC(=O)Nc1ccc(OC[C@H](O)CN2CCN(c3ccc(Cl)c(Cl)c3)CC2)cc1 ... 30
NC(=O)Nc1ccc(OC[C@@H](O)CN2CCN(c3ccc(Cl)c(Cl)c3)CC2)cc1 ... 103
NC(=O)Nc1ccc(OC[C@@H](O)CN2CCN(c3ccc(Cl)cc3)CC2)cc1 ... 46
O=C1CCc2cc(OC[C@@H](O)CN3CCN(c4ccc(C(F)(F)F)cc4)CC3)ccc2N1 ... 111
NC(=O)Nc1ccc(OC[C@H](O)CN2CCN(c3ccc(Cl)cc3)CC2)cc1 ... 19
O=C1CCc2cc(OC[C@H](O)CN3CCN(c4ccc(C(F)(F)F)cc4)CC3)ccc2N1 [NP-10679] ... 23

* * *

Below is a list of entries, each paired with its recorded Ratio IC50 value.
system: Oocyte; experiment: Selectivity ratio of IC50 for antagonist activity at human GluN1-1a/GluN2A receptor expressed in Xenopus laevis oocytes at pH 7.6 to antagonist activity at human GluN1-1a/GluN2A receptor expressed in Xenopus laevis oocytes at pH 6.9; assay type: cell-based
property-label: Ratio IC50

NC(=O)Nc1ccc(OC[C@H](O)CN2CCN(c3ccc(Cl)c(Cl)c3)CC2)cc1 ... 4.4
O=C1CCc2cc(OC[C@@H](O)CN3CCN(c4ccc(C(F)(F)F)cc4)CC3)ccc2N1 ... 6.5
O=C1CCc2cc(OC[C@H](O)CN3CCN(c4ccc(C(F)(F)F)cc4)CC3)ccc2N1 [NP-10679] ... 6.2
NC(=O)Nc1ccc(OC[C@@H](O)CN2CCN(c3ccc(Cl)c(Cl)c3)CC2)cc1 ... 9.2
NC(=O)Nc1ccc(OC[C@@H](O)CN2CCN(c3ccc(Cl)cc3)CC2)cc1 ... 9.8
NC(=O)Nc1ccc(OC[C@H](O)CN2CCN(c3ccc(Cl)cc3)CC2)cc1 ... 3.2
